Assay: physchem
Conditions: simulated gi fluid, pH 6.75
Measured quantity: half-life at 1 μM

For the compound C[C@H](N[P@](=O)(OC[C@H]1O[C@@H](n2ccc(=O)[nH]c2=O)[C@](C)(F)[C@@H]1O)Oc1ccccc1)C(=O)OC1CCC1 [Prodrug 1B.7] , what half-life at 1 μM is on record?
> 20 h

----------
System: HIV strain NL4.3 carrying the GFP-reporter (NL4.3-GFP)
Assay: microbe, parasite or virus in culture
Format: cell-based
Settings: Human immunodeficiency virus 1, SUP-T1, 45 h
Can you tell me EC50 for the items I'm about to list?

For the molecule C[C@H](Cn1cnc2c(N)ncnc21)OC[P@@](=O)(N[C@@H](C)C(=O)OC1CCC1)Oc1ccccc1 [Prodrug 1A.1] , what EC50 is on record?
0.027 µM

Also, CC(C)OC(=O)[C@H](C)N[P@](=O)(CO[C@H](C)Cn1cnc2c(N)ncnc21)Oc1ccccc1 [TAF, temofovir alafenamide] please.
0.035 µM

Also, C[C@H](Cn1cnc2c(N)ncnc21)OC[P@](=O)(N[C@@H](C)C(=O)OC1CCC1)Oc1ccccc1 [Prodrug 1A.2] please.
0.038 µM

----------
Test: Cytotoxicity in uninfected SupT1 cells (XTT reagent)
Format: cell-based
Details: human, uninfected SupT1 cells (T-lymphocyte line)
Can you tell me CC50 for the items I'm about to list?

For the compound C[C@H](Cn1cnc2c(N)ncnc21)OC[P@](=O)(N[C@@H](C)C(=O)OC1CCC1)Oc1ccccc1 [Prodrug 1A.2] , what CC50 is on record?
> 100 µM

Also, C[C@H](Cn1cnc2c(N)ncnc21)OC[P@@](=O)(N[C@@H](C)C(=O)OC1CCC1)Oc1ccccc1 [Prodrug 1A.1] please.
> 100 µM

----------
Test system: SupT1 cells
Experiment: Cytotoxicity in uninfected SupT1 cells (XTT reagent)
Assay type: cell-based
Measured quantity: CC50

Return CC50 measured with SupT1 cells given this molecule: CC(C)OC(=O)[C@H](C)N[P@](=O)(CO[C@H](C)Cn1cnc2c(N)ncnc21)Oc1ccccc1 [TAF, temofovir alafenamide]
> 100 µM
